target: casein (prepared according to Hammarsten; Merck, Darmstadt, #2242)
OBSERVATION_TYPE: Specific Activity (HPE · mg^-1)
Entry rule: numbers only, all in HPE · mg^-1.

>  <BINDER>
BLAP mutant F47 (S3T + V4I + S154D + A188P + V193M + V199I) (enzyme) AQTIPWGISRVQAPAAHNRGLTGSGVKVAVLDTGISTHPDLNIRGGASFVPGEPSTQDGNGHGTHVAGTIAALNNSIGVLGVAPSAELYAVKVLGADGRGAISSIAQGLEWAGNNGMHVANLSLGSPSPSATLEQAVNSATSRGVLVVAASGNDGASSISYPARYANAMAVGATDQNNNRASFSQYGPGLDIMAPGVNIQSTYPGSTYASLNGTSMATPHVAGAAALVKQKNPSWSNVQIRNHLKNTATSLGSTNLYGSGLVNAEAATR

>  <VALUE_UNIT>
HPE · mg^-1

>  <Specific Activity (HPE · mg^-1)>
3610

$$$$

Please report the recorded Specific Activity (HPE · mg^-1) for BLAP variant M131 (S3T + V4I + A188P + V193M + V199I) (enzyme) AQTIPWGISRVQAPAAHNRGLTGSGVKVAVLDTGISTHPDLNIRGGASFVPGEPSTQDGNGHGTHVAGTIAALNNSIGVLGVAPSAELYAVKVLGADGRGAISSIAQGLEWAGNNGMHVANLSLGSPSPSATLEQAVNSATSRGVLVVAASGNSGASSISYPARYANAMAVGATDQNNNRASFSQYGPGLDIMAPGVNIQSTYPGSTYASLNGTSMATPHVAGAAALVKQKNPSWSNVQIRNHLKNTATSLGSTNLYGSGLVNAEAATR .
3670

Please report the recorded Specific Activity (HPE · mg^-1) for BLAP mutant F49 (S3T + V4I + A188P + V193M + V199I + L211D) (enzyme) AQTIPWGISRVQAPAAHNRGLTGSGVKVAVLDTGISTHPDLNIRGGASFVPGEPSTQDGNGHGTHVAGTIAALNNSIGVLGVAPSAELYAVKVLGADGRGAISSIAQGLEWAGNNGMHVANLSLGSPSPSATLEQAVNSATSRGVLVVAASGNSGASSISYPARYANAMAVGATDQNNNRASFSQYGPGLDIMAPGVNIQSTYPGSTYASDNGTSMATPHVAGAAALVKQKNPSWSNVQIRNHLKNTATSLGSTNLYGSGLVNAEAATR .
4610

Please report the recorded Specific Activity (HPE · mg^-1) for Bacillus lentus DSM 5483 alkaline protease (BLAP), wild type enzyme (enzyme) AQSVPWGISRVQAPAAHNRGLTGSGVKVAVLDTGISTHPDLNIRGGASFVPGEPSTQDGNGHGTHVAGTIAALNNSIGVLGVAPSAELYAVKVLGADGRGAISSIAQGLEWAGNNGMHVANLSLGSPSPSATLEQAVNSATSRGVLVVAASGNSGASSISYPARYANAMAVGATDQNNNRASFSQYGAGLDIVAPGVNVQSTYPGSTYASLNGTSMATPHVAGAAALVKQKNPSWSNVQIRNHLKNTATSLGSTNLYGSGLVNAEAATR .
4000

Please report the recorded Specific Activity (HPE · mg^-1) for BLAP mutant F43 (S3T + V4I + R99G + A188P + V193M + V199I) (enzyme) AQTIPWGISRVQAPAAHNRGLTGSGVKVAVLDTGISTHPDLNIRGGASFVPGEPSTQDGNGHGTHVAGTIAALNNSIGVLGVAPSAELYAVKVLGADGGGAISSIAQGLEWAGNNGMHVANLSLGSPSPSATLEQAVNSATSRGVLVVAASGNSGASSISYPARYANAMAVGATDQNNNRASFSQYGPGLDIMAPGVNIQSTYPGSTYASLNGTSMATPHVAGAAALVKQKNPSWSNVQIRNHLKNTATSLGSTNLYGSGLVNAEAATR .
3780

Please report the recorded Specific Activity (HPE · mg^-1) for BLAP mutant F55 (S3T + V4I + S154E + A188P + V193M + V199I + L211D) (enzyme) AQTIPWGISRVQAPAAHNRGLTGSGVKVAVLDTGISTHPDLNIRGGASFVPGEPSTQDGNGHGTHVAGTIAALNNSIGVLGVAPSAELYAVKVLGADGRGAISSIAQGLEWAGNNGMHVANLSLGSPSPSATLEQAVNSATSRGVLVVAASGNEGASSISYPARYANAMAVGATDQNNNRASFSQYGPGLDIMAPGVNIQSTYPGSTYASDNGTSMATPHVAGAAALVKQKNPSWSNVQIRNHLKNTATSLGSTNLYGSGLVNAEAATR .
3200
